Where do the numbers come from? From patent US20260116991A1.

Target: biotinylated labeled human GPC3 protein (produced in-house) (human, UniProt P51654 25-559, limits assumed, biotinylated (Dojindo, Cat. No. LK03); sites not stated)
Test: ELISA, biotinylated human GPC3 protein
experimental_endpoint: OD450 at 66.66 nM (OD450)

>>> numeric_result("hAb001H1L1a (antibody, human IgG1, V domains shown, Humanized F2.169.2; VH H1 + VL L1a; expressed as human IgG1) VH: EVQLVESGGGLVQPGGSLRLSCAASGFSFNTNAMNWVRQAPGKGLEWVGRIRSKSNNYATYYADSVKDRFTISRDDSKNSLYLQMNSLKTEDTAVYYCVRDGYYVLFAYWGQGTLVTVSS VL: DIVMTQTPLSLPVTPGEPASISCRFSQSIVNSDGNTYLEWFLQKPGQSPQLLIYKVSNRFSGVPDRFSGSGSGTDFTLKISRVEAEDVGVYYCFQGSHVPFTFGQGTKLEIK")
2.63
